Values compiled from ChEMBL document CHEMBL5724914.

Settings: human gut metagenome, 24 h, 2 µM; also: call rule not given here
OBSERVATION TYPE: Bacterial Biotransformation

Sample answers from the record:
COc1ccc(CCN(C)CCCC(C#N)(c2ccc(OC)c(OC)c2)C(C)C)cc1OC (stereo not given) = Compound NOT metabolized
CCN(CC)CC#CCOC(=O)C(O)(c1ccccc1)C1CCCCC1.Cl (stereo not given) [OXYBUTYNIN CHLORIDE] = Compound metabolized
CC(C(=O)O)c1ccc2c(c1)Cc1cccnc1O2 (stereo not given) [PRANOPROFEN] = Compound metabolized
CNS(=O)(=O)Cc1ccc2[nH]cc(CCN(C)C)c2c1.O=C(O)CCC(=O)O [SUMATRIPTAN SUCCINATE] = Compound NOT metabolized

--- query ---
-- ask What value of measured Bacterial Biotransformation is listed for O=P(O)(O)O.c1ccc(CN(CC2=NCCN2)c2ccccc2)cc1 [ANTAZOLINE PHOSPHATE] ?
-- reply Compound metabolized

* * *

Assay: The drug is tested on Z-019 corresponding to rat gut metagenome with ENA study accession number: PRJEB37062 and ENA sample accession number: ERS12561818 for biotransformation under anaerobic condition. The drug concentrations were measured over 9 timepoints collected between 0 and 24 hours of incubation by liquid-chromatography-coupled mass spectrometry (LC–MS)
Conditions: 2 µM
OBSERVATION TYPE: Bacterial Biotransformation

Sample answers from the record:
O=C(NCc1ccccc1)OCCO [BURAMATE] = Compound NOT metabolized
O=C1NCC2(CCN(CCc3ccccc3)CC2)O1 [FENSPIRIDE] = Compound NOT metabolized
O=C(CCCN1CCC(O)(c2ccc(Cl)cc2)CC1)c1ccc(F)cc1 = Compound NOT metabolized
CNS(=O)(=O)Cc1ccc2[nH]cc(CCN(C)C)c2c1.O=C(O)CCC(=O)O [SUMATRIPTAN SUCCINATE] = Compound NOT metabolized
O=P(O)(O)O.c1ccc(CN(CC2=NCCN2)c2ccccc2)cc1 [ANTAZOLINE PHOSPHATE] = Compound NOT metabolized
CN1CCN(C2=Nc3cc(Cl)ccc3Nc3ccccc32)CC1 = Compound NOT metabolized
CNC(=C[N+](=O)[O-])NCCSCc1ccc(CN(C)C)o1 = Compound metabolized
CN(C)CCc1c[nH]c2ccc(Cn3cncn3)cc12.O=C(O)c1ccccc1 [RIZATRIPTAN BENZOATE] = Compound NOT metabolized

-- ask What value of measured Bacterial Biotransformation is listed for N#Cc1ccc(C(c2ccc(C#N)cc2)n2cncn2)cc1 ?
-- reply Compound NOT metabolized

-- ask What value of measured Bacterial Biotransformation is listed for CCN(CC)C(=O)/C(C#N)=C/c1cc(O)c(O)c([N+](=O)[O-])c1 ?
-- reply Compound NOT metabolized

-- ask What value of measured Bacterial Biotransformation is listed for CCC(COC(=O)c1cc(OC)c(OC)c(OC)c1)(c1ccccc1)N(C)C.O=C(O)/C=C\C(=O)O (centres undefined) ?
-- reply Compound NOT metabolized

-- ask What value of measured Bacterial Biotransformation is listed for c1ccc([C@H]2CN3CCSC3=N2)cc1 ?
-- reply Compound NOT metabolized

-- ask What value of measured Bacterial Biotransformation is listed for COc1ccc2c(c1OC)C(=O)O[C@@H]2[C@H]1c2c(cc3c(c2OC)OCO3)CCN1C ?
-- reply Compound NOT metabolized

-- ask What value of measured Bacterial Biotransformation is listed for COc1ccc2[nH]c([S+]([O-])Cc3ncc(C)c(OC)c3C)nc2n1 (centres undefined) ?
-- reply Compound metabolized

-- ask What value of measured Bacterial Biotransformation is listed for CC(Oc1c(Cl)cccc1Cl)C1=NCCN1 (centres undefined) ?
-- reply Compound NOT metabolized

* * *

Test: The drug is tested on WLS-027 corresponding to human gut metagenome with ENA study accession number: PRJEB37062 and ENA sample accession number: ERS12561744 for biotransformation under anaerobic condition. The drug concentrations were measured over 9 timepoints collected between 0 and 24 hours of incubation by liquid-chromatography-coupled mass spectrometry (LC–MS)
Conditions: 2 µM
OBSERVATION TYPE: Bacterial Biotransformation

Sample answers from the record:
O=C(O)COCCN1CCN(C(c2ccccc2)c2ccc(Cl)cc2)CC1 (stereo unspecified) = Compound metabolized
CN1CCc2c(c3ccccc3n2Cc2ccccc2)C1.CN1CCc2c(c3ccccc3n2Cc2ccccc2)C1.O=S(=O)(O)c1cccc2c(S(=O)(=O)O)cccc12 = Compound metabolized
CC(C)NCC(O)c1ccc(NS(C)(=O)=O)cc1 (stereo unspecified) = Compound NOT metabolized
Nc1nc2ccc(OC(F)(F)F)cc2s1 = Compound metabolized
CC(C)(C#N)c1cc(Cn2cncn2)cc(C(C)(C)C#N)c1 = Compound NOT metabolized
COc1cc2nc(N3CCN(C(=O)c4ccco4)CC3)nc(N)c2cc1OC = Compound NOT metabolized
CCOc1ccc(NC(C)=O)cc1 = Compound NOT metabolized
C[C@@H]1C[C@H]2[C@@H]3CCC4=CC(=O)C=C[C@]4(C)[C@@]3(F)[C@@H](O)C[C@]2(C)[C@@]1(O)C(=O)CO = Compound NOT metabolized
C#C[C@]1(O)CC[C@H]2[C@@H]3CCC4=Cc5oncc5C[C@]4(C)[C@H]3CC[C@@]21C = Compound metabolized
Cc1cn([C@H]2C[C@H](N=[N+]=[N-])[C@@H](CO)O2)c(=O)[nH]c1=O = Compound NOT metabolized

-- ask What value of measured Bacterial Biotransformation is listed for NS(=O)(=O)c1cc2c(cc1Cl)N=C(CSCc1ccccc1)NS2(=O)=O [BENZTHIAZIDE] ?
-- reply Compound NOT metabolized

-- ask What value of measured Bacterial Biotransformation is listed for CC(C)NCC(O)COc1ccc(COCCOC(C)C)cc1.CC(C)NCC(O)COc1ccc(COCCOC(C)C)cc1.O=C(O)/C=C/C(=O)O (stereo unspecified) [BISOPROLOL FUMARATE] ?
-- reply Compound NOT metabolized

-- ask What value of measured Bacterial Biotransformation is listed for Cc1ccc(-c2cc(C(F)(F)F)nn2-c2ccc(S(N)(=O)=O)cc2)cc1 ?
-- reply Compound metabolized

-- ask What value of measured Bacterial Biotransformation is listed for CN(C)CCC=C1c2ccccc2C=Cc2ccccc21 ?
-- reply Compound metabolized

-- ask What value of measured Bacterial Biotransformation is listed for CCCc1nc2c(C)cc(-c3nc4ccccc4n3C)cc2n1Cc1ccc(-c2ccccc2C(=O)O)cc1 ?
-- reply Compound metabolized

-- ask What value of measured Bacterial Biotransformation is listed for OCCN1CCN(CCCN2c3ccccc3Sc3ccc(C(F)(F)F)cc32)CC1 ?
-- reply Compound metabolized

-- ask What value of measured Bacterial Biotransformation is listed for CCC1(c2ccc(N)cc2)CCC(=O)NC1=O (stereo unspecified) [AMINOGLUTETHIMIDE] ?
-- reply Compound NOT metabolized

* * *

Settings: human gut metagenome, 24 h, 2 µM
OBSERVATION TYPE: Bacterial Biotransformation

Sample answers from the record:
C#C[C@]1(O)CC[C@H]2[C@@H]3CCC4=CC(=O)CC[C@@H]4[C@H]3CC[C@@]21CC = Compound metabolized
CN(C)C(=O)C(CCN1CCC(O)(c2ccc(Cl)cc2)CC1)(c1ccccc1)c1ccccc1 [LOPERAMIDE] = Compound metabolized
CCN(CC)C(C)CN1c2ccccc2Sc2ccccc21 (stereo not drawn) = Compound metabolized
N#Cc1ccc(C(c2ccc(C#N)cc2)n2cncn2)cc1 = Compound NOT metabolized
CC[C@H](C)C(=O)O[C@H]1C[C@@H](C)C=C2C=C[C@H](C)[C@H](CC[C@@H]3C[C@@H](O)CC(=O)O3)[C@H]21 = Compound NOT metabolized
CN(C)CCC=C1c2ccccc2C=Cc2ccccc21 = Compound metabolized

-- ask What value of measured Bacterial Biotransformation is listed for CCN(CC)CCNC(C(=O)OCCC(C)C)c1ccccc1.Cl.Cl (stereo not drawn) ?
-- reply Compound NOT metabolized

-- ask What value of measured Bacterial Biotransformation is listed for CNCCC(Oc1ccc(C(F)(F)F)cc1)c1ccccc1 (stereo not drawn) ?
-- reply Compound NOT metabolized

* * *

Experiment: The drug is tested on Z-030 corresponding to mouse gut metagenome with ENA study accession number: PRJEB37062 and ENA sample accession number: ERS12561829 for biotransformation under anaerobic condition. The drug concentrations were measured over 9 timepoints collected between 0 and 24 hours of incubation by liquid-chromatography-coupled mass spectrometry (LC–MS)
Details: 2 µM
OBSERVATION TYPE: Bacterial Biotransformation

Fc1ccc([C@@H]2CCNC[C@H]2COc2ccc3c(c2)OCO3)cc1 = Compound NOT metabolized
CC(C)c1nc(CN(C)C(=O)N[C@H](C(=O)N[C@@H](Cc2ccccc2)C[C@H](O)[C@H](Cc2ccccc2)NC(=O)OCc2cncs2)C(C)C)cs1 = Compound NOT metabolized
CC(=O)OCC(=O)[C@@]1(O)[C@@H](C)C[C@H]2[C@@H]3CCC4=CC(=O)C=C[C@]4(C)[C@@]3(F)[C@@H](O)C[C@@]21C [BETAMETHASONE ACETATE] = Compound NOT metabolized
